src = patent US20250101041A1

# system tested: human mAChR M4 (Homo sapiens, UniProt P08173)
# Construct: expressed in transfected cells; host or cells: CHO-K1 (American Type Culture Collection), stably expressing hM4 and Gqi5
# test method notes: mAChR M4 cell-based functional assay: calcium mobilization (Fluo-4, FDSS), potentiation of EC20 acetylcholine response in hM4-Gqi5 CHO-K1 cells
# measurement parameters: CHO-K1, % ACh maximum at 30 μM; human M4
measured property: Emax at 30 µM (%)

>  <compound>
Cc1cc2nccc(=O)n2nc1N1CCc2ncc(N3CCO[C@H](C)C3)cc2C1 [Compound 2-2]

>  <system tested>
human mAChR M4 (Homo sapiens, UniProt P08173)

>  <experimental result>
87

$$$$
>  <compound>
Cc1cc2nccc(=O)n2nc1N1CCc2ncc(-c3ccccc3C(C)C)cc2C1 [Compound 1-439]

>  <system tested>
human mAChR M4 (Homo sapiens, UniProt P08173)

>  <experimental result>
22

$$$$

(I) CCn1cc(-c2cnc3c(c2)CN(c2nn4c(=O)cc(C)nc4cc2C)CC3)cn1 [Compound 1-219]
(II) Cc1cc2nccc(=O)n2nc1N1CCc2ncc(NC(=O)C3COC3)cc2C1 [Compound 2-109]
Prompt: Which gives the smaller Emax at 30 µM number: I or II ? Which one? Tell me its label.
Completion: II

---

# system tested: human mAChR M4 (Homo sapiens)
# test method notes: mAChR M4 cell-based functional assay: calcium mobilization (Fluo-4, FDSS), potentiation of EC20 acetylcholine response in hM4-Gqi5 CHO-K1 cells
# measurement parameters: potentiation of EC20 acetylcholine response, calcium mobilization, human M4
measured property: EC50 (nM)

>  <mol>
Cc1cc2nccc(=O)n2nc1N1CCc2ncc(-c3cncc(F)c3C)cc2C1

>  <units>
nM

>  <EC50>
130

$$$$

(A) Cc1cc2nccc(=O)n2nc1N1CCc2ncc(Nc3cccnc3F)cc2C1
(B) Cc1cc(=O)n2nc(N3CCc4ncc(-c5ccccc5O)cc4C3)c(C)cc2n1
(C) Cc1ccc(-c2cnc3c(c2)CN(c2nn4c(=O)cc(CC5CCCC5)nc4c(C)c2C)CC3)cn1
Prompt: Arrange the 3 entries by EC50 so the values rise. As an answer, provide the labels arranged in the order called for.
Completion: A, B, C

---

# system tested: human mAChR M4 (Homo sapiens)
# Construct: expressed in transfected cells; host or cells: CHO-K1 (American Type Culture Collection), stably expressing hM4 and Gqi5
# Sequence (P08173 1-479): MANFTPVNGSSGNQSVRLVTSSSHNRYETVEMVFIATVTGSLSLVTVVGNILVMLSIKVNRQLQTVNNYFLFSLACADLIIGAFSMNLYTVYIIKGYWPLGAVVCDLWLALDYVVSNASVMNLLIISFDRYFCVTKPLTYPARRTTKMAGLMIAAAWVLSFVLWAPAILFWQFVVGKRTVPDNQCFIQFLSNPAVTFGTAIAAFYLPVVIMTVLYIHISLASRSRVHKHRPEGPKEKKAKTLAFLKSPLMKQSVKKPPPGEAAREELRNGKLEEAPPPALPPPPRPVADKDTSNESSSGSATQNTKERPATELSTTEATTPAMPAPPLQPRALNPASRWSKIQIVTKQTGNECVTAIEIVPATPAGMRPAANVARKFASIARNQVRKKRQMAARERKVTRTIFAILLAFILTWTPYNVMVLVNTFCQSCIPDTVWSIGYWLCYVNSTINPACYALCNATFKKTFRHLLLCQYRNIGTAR
# test method notes: mAChR M4 cell-based functional assay: calcium mobilization (Fluo-4, FDSS), potentiation of EC20 acetylcholine response in hM4-Gqi5 CHO-K1 cells
# measurement parameters: CHO-K1, % ACh maximum at 30 μM; human M4
measured property: Emax at 30 µM (%)

>  <mol>
Cc1cc2nccc(=O)n2nc1N1CCc2ncc(-c3ccsc3C=O)cc2C1

>  <Emax at 30 µM [%]>
86

$$$$
>  <mol>
Cc1cc(=O)n2nc(N3CCc4ncc(-c5cccnc5F)cc4C3)c(C)cc2n1

>  <Emax at 30 µM [%]>
87

$$$$
>  <mol>
COc1ccc(-c2cnc3c(c2)CN(c2nn4c(=O)cc(C)nc4cc2C)CC3)cc1F

>  <Emax at 30 µM [%]>
79

$$$$
>  <mol>
Cc1cc2nccc(=O)n2nc1N1CCc2ncc(-c3cnn(C)c3C(F)F)cc2C1

>  <Emax at 30 µM [%]>
89

$$$$
>  <mol>
COc1cncc(-c2cnc3c(c2)CN(c2nn4c(=O)cc(C)nc4cc2C)CC3)c1

>  <Emax at 30 µM [%]>
92

$$$$
>  <mol>
Cc1cc2ncc(Cl)c(=O)n2nc1N1CCc2ncc(N3CCCn4nccc43)cc2C1

>  <Emax at 30 µM [%]>
115

$$$$
>  <mol>
Cc1cc2nccc(=O)n2nc1N1CCc2ncc(Nc3cncnc3C)cc2C1

>  <Emax at 30 µM [%]>
97

$$$$
>  <mol>
COCc1cc(=O)n2nc(N3CCc4ncc(-c5cnccc5C)cc4C3)c(C)cc2n1

>  <Emax at 30 µM [%]>
82

$$$$

---

# system tested: human mAChR M4 (Homo sapiens, UniProt P08173)
# test method notes: mAChR M4 cell-based functional assay: calcium mobilization (Fluo-4, FDSS), potentiation of EC20 acetylcholine response in hM4-Gqi5 CHO-K1 cells
# measurement parameters: potentiation of EC20 acetylcholine response, calcium mobilization, human M4
pEC50: −log10 of the molar value.
measured property: pEC50

Examples with answers:
>  <mol>
Cc1c(N2CCc3ncc(N4CCOc5ncccc54)cc3C2)nn2c(=O)ccnc2c1C

>  <system tested>
human mAChR M4 (Homo sapiens, UniProt P08173)

>  <experimental result>
7.82

$$$$
>  <mol>
COCc1cc(=O)n2nc(N3CCc4ncc(-c5cnc(Cl)cc5C)cc4C3)c(C)c(C)c2n1

>  <system tested>
human mAChR M4 (Homo sapiens, UniProt P08173)

>  <experimental result>
6.45

$$$$

(P) Cc1cc(=O)n2nc(N3CCc4ncc(-c5cnn(C6COC6)c5)cc4C3)c(C)cc2n1
(Q) Cc1cc(=O)n2nc(N3CCc4ncc(-c5cc(F)ncc5C)cc4C3)c(C)cc2n1
Prompt: Of P and Q , whose reported pEC50 is the larger number? Which one? Tell me its label.
Completion: Q

---

# system tested: human mAChR M4 (Homo sapiens, UniProt P08173)
# Construct: expressed in transfected cells; host or cells: CHO-K1 (American Type Culture Collection), stably expressing hM4 and Gqi5
# test method notes: mAChR M4 cell-based functional assay: calcium mobilization (Fluo-4, FDSS), potentiation of EC20 acetylcholine response in hM4-Gqi5 CHO-K1 cells
# measurement parameters: CHO-K1, % ACh maximum at 30 μM; human M4
measured property: Emax at 30 µM (%)

>  <mol>
Cc1ccccc1Nc1cnc2c(c1)CN(c1nn3c(=O)ccnc3cc1C)CC2

>  <Emax at 30 µM, %>
93

$$$$
>  <mol>
Cc1cc2nccc(=O)n2nc1N1CCc2ncc(-c3cnc(C)n3C)cc2C1

>  <Emax at 30 µM, %>
71

$$$$
>  <mol>
COc1ccccc1-c1cnc2c(c1)CN(c1nn3c(=O)ccnc3c(C)c1C)CC2

>  <Emax at 30 µM, %>
72

$$$$
>  <mol>
Cc1cc2nccc(=O)n2nc1N1CCc2ncc(Nc3cc(F)ccc3C#N)cc2C1

>  <Emax at 30 µM, %>
85

$$$$
>  <mol>
COc1ccc(-c2cnc3c(c2)CN(c2nn4c(=O)cc(C)nc4cc2C)CC3)cn1

>  <Emax at 30 µM, %>
90

$$$$
>  <mol>
Cc1cc2nccc(=O)n2nc1N1CCc2ncc(Nc3cccc(F)c3F)cc2C1

>  <Emax at 30 µM, %>
84

$$$$
>  <mol>
Cc1cc2nccc(=O)n2nc1N1CCc2ncc(NS(C)(=O)=O)cc2C1

>  <Emax at 30 µM, %>
83

$$$$
>  <mol>
COCc1cc(=O)n2nc(N3CCc4ncc(-c5cc(F)ncc5C)cc4C3)c(C)cc2n1

>  <Emax at 30 µM, %>
68

$$$$
>  <mol>
Cc1cc2nccc(=O)n2nc1N1CCc2ncc(Nc3ccncc3Cl)cc2C1

>  <Emax at 30 µM, %>
97

$$$$
>  <mol>
Cc1c(N2CCc3ncc(-c4cnc(Cl)c(F)c4)cc3C2)nn2c(=O)ccnc2c1C

>  <Emax at 30 µM, %>
86

$$$$
>  <mol>
Cc1cc(=O)n2nc(N3CCc4ncc(Nc5cccnc5F)cc4C3)c(C)cc2n1

>  <Emax at 30 µM, %>
79

$$$$
>  <mol>
Cc1c(N2CCc3ncc(N4CC(C)(C)OC4=O)cc3C2)nn2c(=O)ccnc2c1C

>  <Emax at 30 µM, %>
63

$$$$
>  <mol>
COCc1cc(=O)n2nc(N3CCc4ncc(-c5ccc(C)o5)cc4C3)c(C)cc2n1

>  <Emax at 30 µM, %>
65

$$$$
>  <mol>
COc1nccc(-c2cnc3c(c2)CN(c2nn4c(=O)ccnc4cc2C)CC3)c1C

>  <Emax at 30 µM, %>
78

$$$$
>  <mol>
Cc1cc2nccc(=O)n2nc1N1CCc2ncc(-c3cccnc3C(C)C)cc2C1

>  <Emax at 30 µM, %>
64

$$$$
>  <mol>
COc1cc(-c2cnc3c(c2)CN(c2nn4c(=O)ccnc4cc2C)CC3)ccn1

>  <Emax at 30 µM, %>
84

$$$$
>  <mol>
Cc1ccncc1-c1cnc2c(c1)CN(c1nn3c(=O)cc(C(F)F)nc3c(C)c1C)CC2

>  <Emax at 30 µM, %>
76

$$$$
